Tested on: CHIKV
Format: cell-based, chikungunya virus
Quick reference for Score_si1 among some substances

- substance: "s33582 (CACCTAGAGTACGAAAACA; chemistry not given here)"
  Score_si1: 1.69
- substance: "Hs_APPL_2 (CAGGAATTTCTACAATAATAA; chemistry not given here) [reference compound]"
  Score_si1: -2.3
- substance: "Hs_SULF1_1 (sense TCCGTCGAATTTGAAGGTGAA; chemistry not given here) [reference compound]"
  Score_si1: -2.1
- substance: "Hs_GCN1L1_2 (sense CAGGTTCAGCTGGAATGTGAA; chemistry not given here)"
  Score_si1: 2.09
- substance: "s10956 (sense CAAGCGGATTTCTACCCTT; chemistry not given here)"
  Score_si1: 1.05
- substance: "Hs_HMMR_2 (sense AAGTTAAGTCTTCGGAATCAA; chemistry not given here)"
  Score_si1: 2.42
- substance: "Hs_F25965_1 (CAGCGAGAACACGCCACTGTA; chemistry not given here)"
  Score_si1: 1.49
- substance: "Hs_DKFZP564C186_1 (AAGGATGAGGACAGGAAGCAA; chemistry not given here)"
  Score_si1: 2.71

* * *

Quick reference for Score_si3 among some substances
Tested on: CHIKV
Type: cell-based, chikungunya virus

- substance: "s38779 (CCAAGATGACTGTGAATAA; chemistry not given here)"
  target: "CHIKV"
  Score_si3: 0.42
- substance: "Hs_TGIF_6 (sense TCCAAGAACTATAAACTTAAA; chemistry not given here)"
  target: "CHIKV"
  Score_si3: 1
- substance: "Hs_DC-UbP_5 (AGGCAGTTAAGAAATAGATAA; chemistry not given here)"
  target: "CHIKV"
  Score_si3: 0.86
- substance: "s8322 (GGTCGGAGATTTGCAAGGA; chemistry not given here)"
  target: "CHIKV"
  Score_si3: 1.44
- substance: "s17901 (GGAAATCGGCCTACAAGAT; chemistry not given here)"
  target: "CHIKV"
  Score_si3: 1.51
- substance: "s24801 (sense CCAAGGTCCTGAGGTCTAA; chemistry not given here)"
  target: "CHIKV"
  Score_si3: 1.43
- substance: "Hs_LOC283377_7 (sense AAAGCTAGGCATACAGCCAAA; chemistry not given here)"
  target: "CHIKV"
  Score_si3: 0.76
- substance: "s27237 (sense ACACTAAAGAATTCCGGAA; chemistry not given here) [reference compound]"
  target: "CHIKV"
  Score_si3: -0.27
- substance: "Hs_ODZ3_4 (CACGAGGAAACTACAATTCCA; chemistry not given here)"
  target: "CHIKV"
  Score_si3: 1
- substance: "s21624 (sense GGTGTAACCGATTCACTAT; chemistry not given here)"
  target: "CHIKV"
  Score_si3: 0.86
- substance: "Hs_PTBP1_3 (sense CGACATAATCTCTGTATTATA; chemistry not given here) [reference compound]"
  target: "CHIKV"
  Score_si3: -0.58
- substance: "s31180 (CCATAGATGAGAAGCGGTT; chemistry not given here)"
  target: "CHIKV"
  Score_si3: 1.93
- substance: "s51653 (sense GCACCTTGCAGGATTGGAA; chemistry not given here)"
  target: "CHIKV"
  Score_si3: 0.68
- substance: "s17301 (GCCTGGTATTTTGAAATCA; chemistry not given here)"
  target: "CHIKV"
  Score_si3: 0.7
- substance: "s16046 (GCACAGATCCTTCCGTTTA; chemistry not given here) [reference compound]"
  target: "CHIKV"
  Score_si3: -0.45
- substance: "s18271 (CCTCTTCACTAAGACCCAT; chemistry not given here)"
  target: "CHIKV"
  Score_si3: 1.67
- substance: "s4918 (sense GGCACTTACTATGACAATT; chemistry not given here)"
  target: "CHIKV"
  Score_si3: 1.02
- substance: "s12243 (sense GCTGGGACAAGACACTGTA; chemistry not given here)"
  target: "CHIKV"
  Score_si3: 1.87
- substance: "s16997 (CAGCTTCCATTATGCCCAA; chemistry not given here)"
  target: "CHIKV"
  Score_si3: 0.97
- substance: "s18076 (GAAATACCCTATTACCAAA; chemistry not given here) [reference compound]"
  target: "CHIKV"
  Score_si3: -0.61
- substance: "s8261 (sense GGGTGGAGGTGTACTATGA; chemistry not given here)"
  target: "CHIKV"
  Score_si3: 0.99
- substance: "Hs_AOF2_3 (ACGAGTTGCCACATTTCGCAA; chemistry not given here)"
  target: "CHIKV"
  Score_si3: 1.26
- substance: "Hs_NPEPL1_4 (CAGAATTCACTTGAGGTTCAA; chemistry not given here)"
  target: "CHIKV"
  Score_si3: 1.44
- substance: "s21425 (sense GCCTGTTACAGATGACATA; chemistry not given here)"
  target: "CHIKV"
  Score_si3: 0.63
- substance: "s14380 (sense GGACCACGTCAAGACTTGT; chemistry not given here) [reference compound]"
  target: "CHIKV"
  Score_si3: -0.84
- substance: "s17000 (GATGAAAGGTTACAATCCA; chemistry not given here)"
  target: "CHIKV"
  Score_si3: 1.29
- substance: "Hs_CHD8_2 (sense AAGGATAAGAGGATACATCAA; chemistry not given here)"
  target: "CHIKV"
  Score_si3: 1.53
- substance: "Hs_GP1BB_4 (sense CGAGCTGGTGCTGACCGGCAA; chemistry not given here) [reference compound]"
  target: "CHIKV"
  Score_si3: -0.68
- substance: "Hs_EEF1A1_1 (CTGGTTAATGATAACAATGCA; chemistry not given here)"
  target: "CHIKV"
  Score_si3: 2.24
- substance: "s37713 (GAACCTCCTTCGGGATAAA; chemistry not given here)"
  target: "CHIKV"
  Score_si3: 0.52
- substance: "s9665 (CTCTCGTCCTTCTAGTAAA; chemistry not given here) [reference compound]"
  target: "CHIKV"
  Score_si3: -0.95
- substance: "Hs_CCNF_7 (sense CACGGACAACACTTACAAGTA; chemistry not given here)"
  target: "CHIKV"
  Score_si3: 0.92
- substance: "s195642 (sense GGTGAGGACAAGTTCCAGT; chemistry not given here)"
  target: "CHIKV"
  Score_si3: 0.49
- substance: "s32096 (GTTCCAGTATGGGAATTAT; chemistry not given here)"
  target: "CHIKV"
  Score_si3: 1.63
- substance: "Hs_CSNK1A1_3 (sense AAGAACTTAATTTCAGTATAA; chemistry not given here)"
  target: "CHIKV"
  Score_si3: 1.65
